# assayed_target: HLA-A*24:02
# measurement_protocol: IEDB peptide-MHC binding, purified MHC/competitive/radioactivity; filed as Kd, often an IC50 or EC50 that approximates it; bounds were set here for any values at or beyond the usual limits of such assays
# experimental_parameters: source organism: Homo sapiens
recorded_endpoint: Kd (nM)
One number for each entry, in nM.

Return Kd measured with HLA-A*24:02 given this sequence: `IYKAPSENW` 39

* * *

Kindly state Kd for each of the entries shown.
# assayed_target: HLA-A*02:02
# measurement_protocol: IEDB peptide-MHC binding, purified MHC/competitive/radioactivity; filed as Kd, often an IC50 or EC50 that approximates it; bounds were set here for any values at or beyond the usual limits of such assays
# experimental_parameters: source organism: Trypanosoma cruzi
Numbers only, in nM.

Recorded results for 5 sequences are shown here.
> print(dat)
   record.sequence  units.of.measure  recorded.measurement
1       GLLPSLLLLL                nM                  3.06
2       LLGLWGFAAA                nM                  28.8
3       LLGLWGIAAS                nM                  1580
4       GLLPLLLLLL                nM                  89.6
5       LLGLWGLATA                nM                  1.69

# next sequence below
Can you look up the measured Kd of `FVNYNFTLV` for me? 10.4

* * *

# assayed_target: HLA-B*51:01
# measurement_protocol: IEDB peptide-MHC binding, purified MHC/competitive/fluorescence; filed as Kd, often an IC50 or EC50 that approximates it; bounds were set here for any values at or beyond the usual limits of such assays
# experimental_parameters: source organism: Orthohantavirus puumalaense
pKd: −log10 of the molar value.
recorded_endpoint: pKd

Can you look up the measured pKd of `SPVMGVIGF` for me? ≤ 4.70

* * *

# assayed_target: HLA-B*07:02
# measurement_protocol: IEDB peptide-MHC binding, purified MHC/direct/fluorescence; filed as Kd, often an IC50 or EC50 that approximates it; bounds were set here for any values at or beyond the usual limits of such assays
# experimental_parameters: source organism: Camelpox virus M-96
recorded_endpoint: Kd

> print(dat)
   record.sequence  recorded.measurement
1        SHEQGDIAL               ≥ 20 µM

Return Kd measured with HLA-B*07:02 given this sequence: `FYLFTFTIY` ≥ 20 µM

* * *

# assayed_target: HLA-B*07:02
# measurement_protocol: IEDB peptide-MHC binding, purified MHC/competitive/radioactivity; filed as Kd, often an IC50 or EC50 that approximates it; bounds were set here for any values at or beyond the usual limits of such assays
# experimental_parameters: source organism: SARS coronavirus Tor2
Kindly state Kd for each of the entries shown.
Answers are plain numbers, in nM.

> print(dat)
   record.sequence  assayed.target  recorded.endpoint  recorded.measurement
1       WPVTLACFVL     HLA-B*07:02                 Kd                   956
2       KPRSQMETDF     HLA-B*07:02                 Kd                  78.8

Please give Kd, item by item, for the list that follows.
1. FPQAAPHGVV
2. MPICMDVRAI

82.2
300

Can you look up the measured Kd of `KPVDTSNSF` for me? 20.7

* * *

# assayed_target: HLA-B*40:01
# measurement_protocol: IEDB peptide-MHC binding, purified MHC/direct/fluorescence; filed as Kd, often an IC50 or EC50 that approximates it; bounds were set here for any values at or beyond the usual limits of such assays
# experimental_parameters: source organism: Salmonella enterica
recorded_endpoint: Kd (nM)
Numbers only, in nM.

Return Kd measured with HLA-B*40:01 given this sequence: `AMMWRIAQL` 2280

* * *

# assayed_target: HLA-A*30:01
# measurement_protocol: IEDB peptide-MHC binding, purified MHC/competitive/fluorescence; filed as Kd, often an IC50 or EC50 that approximates it; bounds were set here for any values at or beyond the usual limits of such assays
# experimental_parameters: source organism: Giardia lamblia ATCC 50803
recorded_endpoint: Kd

Can you look up the measured Kd of `MTFPLHFRS` for me? ≥ 5 µM

* * *

# assayed_target: HLA-A*01:01
# measurement_protocol: IEDB peptide-MHC binding, purified MHC/competitive/radioactivity; filed as Kd, often an IC50 or EC50 that approximates it; bounds were set here for any values at or beyond the usual limits of such assays
# experimental_parameters: source organism: Mammarenavirus mopeiaense
recorded_endpoint: Kd (µM)
One number for each entry, in µM.

Can you look up the measured Kd of `IKIPTHRHI` for me? 16.6

* * *

# assayed_target: HLA-B*39:01
# measurement_protocol: IEDB peptide-MHC binding, purified MHC/competitive/fluorescence; filed as Kd, often an IC50 or EC50 that approximates it; bounds were set here for any values at or beyond the usual limits of such assays
# experimental_parameters: source organism: Mus musculus
recorded_endpoint: Kd

Can you look up the measured Kd of `YTFCGTIEY` for me? ≥ 20 µM

* * *

# assayed_target: HLA-B*15:17
# measurement_protocol: IEDB peptide-MHC binding, purified MHC/direct/fluorescence; filed as Kd, often an IC50 or EC50 that approximates it; bounds were set here for any values at or beyond the usual limits of such assays
# experimental_parameters: source organism: Burkholderia mallei
recorded_endpoint: pKd
Numbers only, as −log10 of the molar value.

Can you look up the measured pKd of `EPFSRRHPL` for me? 6.44

* * *

# assayed_target: HLA-A*32:07
# measurement_protocol: IEDB peptide-MHC binding, purified MHC/competitive/fluorescence; filed as Kd, often an IC50 or EC50 that approximates it; bounds were set here for any values at or beyond the usual limits of such assays
# experimental_parameters: source organism: Homo sapiens
recorded_endpoint: pKd
Numbers only, as −log10 of the molar value.

Can you look up the measured pKd of `MAWLFFWAI` for me? 5.47

* * *

# assayed_target: HLA-B*57:01
# measurement_protocol: IEDB peptide-MHC binding, purified MHC/direct/fluorescence; filed as Kd, often an IC50 or EC50 that approximates it; bounds were set here for any values at or beyond the usual limits of such assays
# experimental_parameters: source organism: Lake Victoria marburgvirus - Popp
recorded_endpoint: Kd

Can you look up the measured Kd of `KNYPASLHK` for me? ≥ 20 µM

* * *

# assayed_target: HLA-B*27:05
# measurement_protocol: IEDB peptide-MHC binding, purified MHC/direct/fluorescence; filed as Kd, often an IC50 or EC50 that approximates it; bounds were set here for any values at or beyond the usual limits of such assays
# experimental_parameters: source organism: Lake Victoria marburgvirus - Popp
pKd: −log10 of the molar value.
recorded_endpoint: pKd

Return pKd measured with HLA-B*27:05 given this sequence: `KNYPASLHK` ≤ 4.70

* * *

# assayed_target: HLA-C*05:01
# measurement_protocol: IEDB peptide-MHC binding, purified MHC/direct/fluorescence; filed as Kd, often an IC50 or EC50 that approximates it; bounds were set here for any values at or beyond the usual limits of such assays
# experimental_parameters: source organism: Rickettsia bellii RML369-C
recorded_endpoint: pKd
Numbers only, as −log10 of the molar value.

Return pKd measured with HLA-C*05:01 given this sequence: `FAYKTGSSM` 5.83

* * *

# assayed_target: HLA-A*02:01
# measurement_protocol: IEDB peptide-MHC binding, purified MHC/direct/fluorescence; filed as Kd, often an IC50 or EC50 that approximates it; bounds were set here for any values at or beyond the usual limits of such assays
# experimental_parameters: source organism: Burkholderia mallei
pKd: −log10 of the molar value.
recorded_endpoint: pKd

Can you look up the measured pKd of `EPFSRRHPL` for me? ≤ 4.70

* * *

# assayed_target: HLA-A*01:01
# measurement_protocol: IEDB peptide-MHC binding, purified MHC/competitive/fluorescence; filed as Kd, often an IC50 or EC50 that approximates it; bounds were set here for any values at or beyond the usual limits of such assays
# experimental_parameters: source organism: Influenza A virus (A/X-31(H3N2))
pKd: −log10 of the molar value.
recorded_endpoint: pKd

Return pKd measured with HLA-A*01:01 given this sequence: `QVSRPMFLY` ≤ 4.70

* * *

# assayed_target: HLA-B*39:01
# measurement_protocol: IEDB peptide-MHC binding, purified MHC/competitive/fluorescence; filed as Kd, often an IC50 or EC50 that approximates it; bounds were set here for any values at or beyond the usual limits of such assays
# experimental_parameters: source organism: Reston ebolavirus
pKd: −log10 of the molar value.
recorded_endpoint: pKd

Return pKd measured with HLA-B*39:01 given this sequence: `QAFEAGIDF` ≤ 4.70

* * *

# assayed_target: HLA-A*02:01
# measurement_protocol: IEDB peptide-MHC binding, purified MHC/direct/fluorescence; filed as Kd, often an IC50 or EC50 that approximates it; bounds were set here for any values at or beyond the usual limits of such assays
# experimental_parameters: source organism: Mus musculus
recorded_endpoint: Kd
Please report the result as a number followed by the unit.

Return Kd measured with HLA-A*02:01 given this sequence: `FLQQRKPPL` 432 nM
